target: Serine-protein kinase ATM (Homo sapiens, UniProt Q13315); test: Inhibition of Mutated in ataxia telangiectasia protein ATM kinase
Sequence (Q13315 2-3056 limits assumed, change not shown): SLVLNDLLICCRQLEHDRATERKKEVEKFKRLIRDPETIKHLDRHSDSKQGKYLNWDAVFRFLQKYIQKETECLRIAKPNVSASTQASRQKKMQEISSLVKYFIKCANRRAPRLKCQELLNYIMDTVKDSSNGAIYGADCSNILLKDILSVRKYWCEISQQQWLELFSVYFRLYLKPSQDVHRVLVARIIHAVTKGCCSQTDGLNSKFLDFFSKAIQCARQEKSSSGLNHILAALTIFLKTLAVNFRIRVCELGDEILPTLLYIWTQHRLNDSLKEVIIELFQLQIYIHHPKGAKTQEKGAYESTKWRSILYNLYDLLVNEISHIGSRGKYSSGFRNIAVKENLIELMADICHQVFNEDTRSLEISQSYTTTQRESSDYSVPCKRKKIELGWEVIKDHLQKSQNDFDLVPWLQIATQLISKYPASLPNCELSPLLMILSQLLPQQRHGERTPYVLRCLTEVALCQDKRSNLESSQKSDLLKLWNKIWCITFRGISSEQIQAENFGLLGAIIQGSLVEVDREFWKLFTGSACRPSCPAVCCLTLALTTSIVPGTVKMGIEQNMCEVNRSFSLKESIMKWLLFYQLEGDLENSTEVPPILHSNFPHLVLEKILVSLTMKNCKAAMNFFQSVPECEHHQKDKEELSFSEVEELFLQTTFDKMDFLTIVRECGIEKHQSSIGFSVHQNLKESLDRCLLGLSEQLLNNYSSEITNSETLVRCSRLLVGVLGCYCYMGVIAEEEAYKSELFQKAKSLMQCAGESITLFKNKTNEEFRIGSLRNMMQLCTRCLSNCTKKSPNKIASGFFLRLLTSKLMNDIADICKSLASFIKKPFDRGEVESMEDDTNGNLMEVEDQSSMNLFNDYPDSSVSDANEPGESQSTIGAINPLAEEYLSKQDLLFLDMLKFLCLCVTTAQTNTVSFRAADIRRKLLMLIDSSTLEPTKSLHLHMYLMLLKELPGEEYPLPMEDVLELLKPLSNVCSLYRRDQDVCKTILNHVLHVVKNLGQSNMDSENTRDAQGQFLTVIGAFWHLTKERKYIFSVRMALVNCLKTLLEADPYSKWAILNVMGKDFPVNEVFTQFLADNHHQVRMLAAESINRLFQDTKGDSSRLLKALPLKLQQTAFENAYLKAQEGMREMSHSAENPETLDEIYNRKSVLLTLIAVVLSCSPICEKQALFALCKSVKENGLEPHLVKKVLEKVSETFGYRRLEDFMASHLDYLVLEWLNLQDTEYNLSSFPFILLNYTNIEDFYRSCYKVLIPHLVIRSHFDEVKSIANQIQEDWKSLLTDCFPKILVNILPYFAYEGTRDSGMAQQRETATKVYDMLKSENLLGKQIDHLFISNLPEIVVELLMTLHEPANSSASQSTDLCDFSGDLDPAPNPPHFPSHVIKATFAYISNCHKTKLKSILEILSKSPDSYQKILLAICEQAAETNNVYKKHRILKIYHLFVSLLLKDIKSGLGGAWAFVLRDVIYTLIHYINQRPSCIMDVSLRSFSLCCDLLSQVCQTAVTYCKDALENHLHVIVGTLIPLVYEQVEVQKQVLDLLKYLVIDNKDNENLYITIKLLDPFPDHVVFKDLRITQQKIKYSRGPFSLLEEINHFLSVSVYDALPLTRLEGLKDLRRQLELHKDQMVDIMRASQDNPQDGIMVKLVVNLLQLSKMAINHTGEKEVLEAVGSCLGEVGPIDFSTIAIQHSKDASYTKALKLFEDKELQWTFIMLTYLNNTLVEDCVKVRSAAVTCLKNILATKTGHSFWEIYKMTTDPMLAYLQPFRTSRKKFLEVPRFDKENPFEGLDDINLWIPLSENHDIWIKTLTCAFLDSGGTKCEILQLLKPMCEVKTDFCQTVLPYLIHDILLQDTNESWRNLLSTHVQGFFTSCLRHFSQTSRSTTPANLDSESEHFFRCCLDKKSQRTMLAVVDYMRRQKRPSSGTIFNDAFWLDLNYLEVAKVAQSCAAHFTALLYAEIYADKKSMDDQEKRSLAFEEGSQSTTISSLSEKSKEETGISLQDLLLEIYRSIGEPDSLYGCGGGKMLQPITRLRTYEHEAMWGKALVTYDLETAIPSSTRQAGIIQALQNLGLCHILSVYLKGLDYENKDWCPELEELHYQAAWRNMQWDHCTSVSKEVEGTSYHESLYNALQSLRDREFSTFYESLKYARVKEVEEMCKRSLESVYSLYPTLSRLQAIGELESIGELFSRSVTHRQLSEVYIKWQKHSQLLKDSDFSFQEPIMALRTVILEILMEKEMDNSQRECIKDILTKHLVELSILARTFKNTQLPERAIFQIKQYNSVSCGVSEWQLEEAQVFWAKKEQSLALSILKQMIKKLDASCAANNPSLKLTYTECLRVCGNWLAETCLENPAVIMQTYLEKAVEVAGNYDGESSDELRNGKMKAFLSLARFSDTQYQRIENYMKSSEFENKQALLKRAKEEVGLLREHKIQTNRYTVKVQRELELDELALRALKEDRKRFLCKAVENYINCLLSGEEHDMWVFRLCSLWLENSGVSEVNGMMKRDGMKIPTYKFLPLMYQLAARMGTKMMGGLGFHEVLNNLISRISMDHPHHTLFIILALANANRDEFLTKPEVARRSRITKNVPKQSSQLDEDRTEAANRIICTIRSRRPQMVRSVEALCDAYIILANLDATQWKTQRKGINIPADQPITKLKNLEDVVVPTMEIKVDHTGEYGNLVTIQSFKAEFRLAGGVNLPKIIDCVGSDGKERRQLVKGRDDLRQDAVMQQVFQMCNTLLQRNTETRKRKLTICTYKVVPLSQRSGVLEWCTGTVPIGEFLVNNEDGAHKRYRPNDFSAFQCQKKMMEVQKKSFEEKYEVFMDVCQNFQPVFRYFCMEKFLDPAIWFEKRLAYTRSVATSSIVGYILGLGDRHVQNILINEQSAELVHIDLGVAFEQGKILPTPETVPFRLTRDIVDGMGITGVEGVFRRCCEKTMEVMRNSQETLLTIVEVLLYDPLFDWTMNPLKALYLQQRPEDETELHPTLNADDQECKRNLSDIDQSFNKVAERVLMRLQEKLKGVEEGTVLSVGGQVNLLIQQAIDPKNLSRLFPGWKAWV
pIC50: −log10 of the molar value.
Property Measured: pIC50

Query: I am curious: what pIC50 value has been reported for `O=c1cc(N2CCOCC2)oc2c1ccc1ccccc12` ?
Reply: < 4.00

Query: pIC50; subject: `O=c1cc(N2CCOCC2)oc2c(-c3ccccc3)cccc12`
Reply: < 4.00

Query: I am curious: what pIC50 value has been reported for `O=c1cc(N2CCOCC2)oc2c(-c3cccc4c3sc3ccccc34)cccc12` ?
Reply: < 4.00

* * *

target: DNA-dependent protein kinase catalytic subunit (Homo sapiens, UniProt P78527); assay: Inhibitory activity against DNA-dependent protein kinase (DNA-PK)
Assign pIC50 to each entry below.
Note: pIC50 values are expressed as the negative base-10 logarithm of concentration in M.

Query: Any idea what its pIC50 is? The molecule is `O=c1cc(N2CCOCC2)oc2c(-c3cccc4c3sc3ccccc34)cccc12`
Reply: 7.85

Query: Entry under review: `O=c1cc(N2CCOCC2)oc2c(-c3ccccc3)cccc12` . Reported pIC50?
Reply: 5.92

* * *

molecular target: Phosphatidylinositol 4,5-bisphosphate 3-kinase catalytic subunit alpha isoform (Homo sapiens, UniProt P42336); assay: Inhibition of Phosphatidylinositol 3-kinase p110 alpha subunit
Sequence (P42336 whole entry, canonical isoform): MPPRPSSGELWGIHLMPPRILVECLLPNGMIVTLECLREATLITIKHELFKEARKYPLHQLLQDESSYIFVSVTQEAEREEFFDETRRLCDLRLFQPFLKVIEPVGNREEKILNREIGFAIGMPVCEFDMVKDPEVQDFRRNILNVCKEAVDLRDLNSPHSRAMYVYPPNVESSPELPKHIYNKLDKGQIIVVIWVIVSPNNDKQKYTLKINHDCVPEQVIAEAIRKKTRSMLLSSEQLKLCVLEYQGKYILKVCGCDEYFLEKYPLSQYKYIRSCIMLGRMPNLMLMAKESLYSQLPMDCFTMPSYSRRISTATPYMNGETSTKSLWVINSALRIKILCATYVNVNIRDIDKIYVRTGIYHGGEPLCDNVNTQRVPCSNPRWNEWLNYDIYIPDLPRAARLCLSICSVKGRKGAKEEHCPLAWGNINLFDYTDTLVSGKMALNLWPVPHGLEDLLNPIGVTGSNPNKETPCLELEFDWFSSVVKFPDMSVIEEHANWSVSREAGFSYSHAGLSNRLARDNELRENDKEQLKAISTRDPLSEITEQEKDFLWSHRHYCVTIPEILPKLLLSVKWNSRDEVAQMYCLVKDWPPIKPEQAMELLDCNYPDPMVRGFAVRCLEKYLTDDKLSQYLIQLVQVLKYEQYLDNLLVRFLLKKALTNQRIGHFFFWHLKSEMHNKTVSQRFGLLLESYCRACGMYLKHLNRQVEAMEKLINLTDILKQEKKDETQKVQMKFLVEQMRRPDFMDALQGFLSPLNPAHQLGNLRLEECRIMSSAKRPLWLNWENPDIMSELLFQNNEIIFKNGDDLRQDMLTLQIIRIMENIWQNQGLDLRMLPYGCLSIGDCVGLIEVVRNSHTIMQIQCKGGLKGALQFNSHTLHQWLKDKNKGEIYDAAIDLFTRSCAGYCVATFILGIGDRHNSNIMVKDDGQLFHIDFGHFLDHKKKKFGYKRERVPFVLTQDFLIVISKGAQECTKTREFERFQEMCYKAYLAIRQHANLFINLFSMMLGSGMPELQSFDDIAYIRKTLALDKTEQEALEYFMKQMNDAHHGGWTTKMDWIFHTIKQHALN
Property Measured: IC50 (µM)
Report as a plain number; the unit µM is understood.

Query: Fill blank: measured IC50 of the compound `O=c1cc(N2CCOCC2)oc2c(-c3cccc4c3sc3ccccc34)cccc12` is ____.
Reply: 5

Query: What value of IC50 has been reported for the following compound? `O=c1cc(N2CCOCC2)oc2c1ccc1ccccc12`
Reply: 13
